# test.method.notes: Molar enthalpy of transition or fusion
# assay.setup: Crystal 1; DSC
readout: Molar enthalpy of transition or fusion (kcal/mol)
Give your result in kcal/mol as a bare value.

// Molar enthalpy of transition or fusion lookup, key: CCCCCC[N+](CCCCCC)(CCCCCC)CCCS(=O)(=O)[O-] [3-(trihexylammonio)propane-1-sulfonate] 6.79

Next compound up: CCCC[P+](CCCC)(CCCC)CCCCS(=O)(=O)[O-] [4-(tributylphosphonio)butane-1-sulfonate] 4.71

Next compound up: O=S(=O)([O-])CCC[n+]1ccccc1 [[PyC3S]] 9.44

Next compound up: CCCC[P+](CCCC)(CCCC)CCCS(=O)(=O)[O-] [3-(tributylphosphonio)propane-1-sulfonate] 2.32

Next compound up: CC[N+](CC)(CC)CCCS(=O)(=O)[O-] [3-(triethylammonio)propane-1-sulfonate] 3.66

Field: next compound
// Molar enthalpy of transition or fusion lookup, key: CCCCCC[N+](CCCCCC)(CCCCCC)CCCCS(=O)(=O)[O-] [4-(trihexylammonio)butane-1-sulfonate] 4.31

* * *

List of Normal melting temperature values.
# assay.setup: Crystal 1; DTA
Give your result in °C as a bare value.

Solved cases (4 shown):
// Normal melting temperature lookup, key: O=S(=O)([O-])CCC[n+]1ccccc1 [[PyC3S]] 273.89

Next molecule up: CCCCCC[N+](CCCCCC)(CCCCCC)CCCCS(=O)(=O)[O-] [4-(trihexylammonio)butane-1-sulfonate] 199.60

Next molecule up: CCCC[P+](CCCC)(CCCC)CCCS(=O)(=O)[O-] [3-(tributylphosphonio)propane-1-sulfonate] 160.02

Next molecule up: CCCCCC[N+](CCCCCC)(CCCCCC)CCCS(=O)(=O)[O-] [3-(trihexylammonio)propane-1-sulfonate] 206.74

---
// Normal melting temperature lookup, key: CCCC[P+](CCCC)(CCCC)CCCCS(=O)(=O)[O-] [4-(tributylphosphonio)butane-1-sulfonate] 173.57

Next molecule up: CC[N+](CC)(CC)CCCS(=O)(=O)[O-] [3-(triethylammonio)propane-1-sulfonate] 172.88
